Ref: PubChem BioAssay AID248

# key: entry, value: T/C
Test system: L1210 leukemia ip in BDF1 mice, survival T/C
Experiment description: NCI In Vivo Anticancer Drug Screen. Data for tumor model L1210 Leukemia (intraperitoneal) in B6D2F1 (BDF1) mice
Run conditions: endpoint: mean survival time; dose: 200.0 mg/kg/injection; schedule: Q01DX009 (ip); vehicle: saline; higher = longer survival
Procedure: The antitumor activity of compounds was measured in mice bearing transplantable tumors. Survival or tumor size were measured and the results are expressed as the measurement made in the treated group (T) divided by the measurement made in the vehicle treated control group (C). The tumor model used in this assay is L1210 Leukemia (intraperitoneal) in B6D2F1 (BDF1) mice
Toxic doses and inconclusive results are not listed.

CCNCC#CCNCC : 107 % of control
C/C(CCC(=O)O)=N/O : 97 % of control
NC(=O)N1C(=O)C2C3C=CC(O3)C2C1=O (configuration not stated) : 95 % of control
O=C(/C=C/c1ccc2c(c1)OCO2)/C=C/c1ccc2c(c1)OCO2 : 88 % of control
CCOC(CN)OCC : 107 % of control
O=C1OC(=O)c2c3c(c4c(c21)CCC4)CCC3 : 94 % of control
CC1C(=O)OC2CC[N+]3(C)CC=C(COC(=O)C(C)(O)C1(C)O)C23 (configuration not stated) : 92 % of control
CCOC(=O)C1(C(C)C)OC2(O)CCCCCN2C1=O (configuration not stated) : 95 % of control
CCc1ccccc1N1CCN(C(=O)c2cc(OC)c(OC)c(OC)c2)CC1 : 100 % of control
CC1CCC2(CC1=O)C(C)CC(=O)C2C(C)C (configuration not stated) : 102 % of control

// next item, T/C requested
Request: T/C, test system L1210 leukemia ip in BDF1 mice, survival T/C, entry CN(C)S(=O)(=O)c1ccc2c(c1)N(CCCN1CCN(S(C)(=O)=O)CC1)c1ccccc1S2
98 % of control
